target: T1, human IgG2 (human, UniProt P01859-1 1-326 = IgG part); assay: fluorescence anisotropy; pH 5.7, 0.01 M Tris-acetate
T1 construct: Calbiochem; plasma IgG2 in anisotropy studies, myeloma-derived (cat. 400122) in batch/column studies; also called hIgG2
T1 sequence (P01859 other isoform, or with tags, fused parts or gaps): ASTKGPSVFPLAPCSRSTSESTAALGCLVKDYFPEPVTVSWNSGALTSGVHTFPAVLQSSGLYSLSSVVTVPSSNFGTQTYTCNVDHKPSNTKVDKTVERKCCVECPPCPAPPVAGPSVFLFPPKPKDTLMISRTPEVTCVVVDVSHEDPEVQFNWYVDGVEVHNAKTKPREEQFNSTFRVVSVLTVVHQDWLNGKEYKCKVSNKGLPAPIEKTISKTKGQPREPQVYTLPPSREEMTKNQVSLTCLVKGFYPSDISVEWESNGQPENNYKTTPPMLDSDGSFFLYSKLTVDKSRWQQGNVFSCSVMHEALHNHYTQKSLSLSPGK
Positions of bridges follow the written chain, without caps; N, C: chain ends.
Value Kind: pKd
Keep in mind that pKd stands for -log10 of concentration in molar terms.

Which measured pKd value corresponds to Ac-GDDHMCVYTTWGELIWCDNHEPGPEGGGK-NH2 (disulfide 6-17 (inferred), Synthetic disulfide-cyclised peptide) [DX249] ? 7.17
